- Method description: Acute toxicity, i.p. injection in mice
- Measurement setup: mouse, in vivo, ip, 0.5% solution, male albino ICR mice, probit analysis
Structures can show the parent of a compound that is named as a salt.
Property: LD50 (mg/kg)

Molecule | Property | Observed
Cc1cccc(C)c1NC(=O)C1CN2CCC1CC2 (stereo not shown) [Compound I, hydrochloride] | LD50 | 60

====

- Method description: Biological availability by the oral route in dog
- Assay type: in vivo
- Measurement setup: in vivo; oral 7.5 mg/kg in 6 gelatin capsules, conscious healthy dog; read-out: Peak blood concentration
Where a name gives a salt, the structure may show the parent alone.

Compound | Cmax
Cc1cccc(C)c1NC(=O)C1CN2CCC1CC2 (stereo not shown) [Compound I, hydrochloride] | 1500 to 2000 ng/mL

====

- Method description: Pharmacokinetic parameters in conscious dogs with occlusion-induced arrhythmia
- Type: in vivo
- Measurement setup: dog, blood, iv, i.v. single therapeutic dose, conscious arrhythmic dogs; read-out: t1/2 for distribution
Structures can show the parent of a compound that is named as a salt.

Compound | half-life (min)
Cc1cccc(C)c1NC(=O)C1CN2CCC1CC2 (stereo not shown) [Compound I, hydrochloride] | 5

====

- Method description: Pharmacokinetic parameters in conscious dogs with occlusion-induced arrhythmia
- Format: in vivo
- Measurement setup: dog, blood, iv, summary table; read-out: t1/2 for distribution
Where a name gives a salt, the structure may show the parent alone.

Molecule | half-life [min]
Cc1cccc(C)c1NC(=O)C1CN2CCC1CC2 (stereo not shown) [Compound I, hydrochloride] | 5
